Kindly supply the reported folding stability dG unfold values for the records listed here.
Experiment: folding stability dG unfold (combined trypsin and chymotrypsin); higher = more stable

SAGGPMVTWRIKFPGKKIEVMWNPDQMNVNIYDPDKPKEVPIPMPPGEPPTADDILDELKKDGFKIEPSAGG [r13_687_TrROS] : < -1 kcal/mol
SAGGDPDWKPIEFNLQRTVKPGDPEQIEEKAREFFEMFGIKSVTDVERERNPEGQQTVQASVKIRFPDSAGG [r13_222_TrROS] : < -1 kcal/mol

Exercise: Give the reported folding stability dG unfold for this sequence. SAGGSAPPPIKIKFKYPNGRPMELEFNPENGNYEIKQPDGEKEEVPMENIKEIRIPPGIKDVEIVPSAGGSA [r15_1043_TrROS]
Key: < -1 kcal/mol
